Hey, just so you know, these numbers are from PubChem BioAssay (NCATS).

Tested on: 3D7
Assay: qHTS profiling for inhibitors of Plasmodium falciparum proliferation (AID 504749); note: nearly all actives have a fitted effect of over 60% in size
Conditions: P. falciparum in erythrocytes, SYBR Green DNA, 72 h; series mostly up to 28.7 µM
Inconclusive results are not listed. Calls of active or inactive are those of the source. Calls come from the whole dose curve; as a rule, active = well fitted inhibition curve with a large enough effect; inconclusive = small, poorly fitted or top-dose-only effect; inactive = flat fitted curve, though single readings scatter.
Outcomes: active, inactive

{"columns": ["molecule", "label class"],
 "data": [
  ["C=CC(=O)O", "inactive"],
  ["CC(=O)Nc1ccc(NC(=S)NC(=O)c2ccc(C(C)(C)C)cc2)cc1", "active"],
  ["CN(C)c1ccc(C(=C2C=CC(=[N+](C)C)C=C2)c2c(O)c(S(=O)(=O)[O-])cc3cc(S(=O)(=O)O)ccc23)cc1", "inactive"],
  ["NC(=O)[C@@H]1CCCN1C(=O)[C@H](Cc1cnc[nH]1)NC(=O)[C@@H]1CCC(=O)N1", "inactive"],
  ["O=C(CCCN1CCN2CCCC2C1)c1ccc(F)cc1 (centres undefined)", "inactive"],
  ["CC(C)(C)CC(C)(C)c1cc(Cc2cc(C(C)(C)CC(C)(C)C)cc(-n3nc4ccccc4n3)c2O)c(O)c(-n2nc3ccccc3n2)c1", "inactive"],
  ["COc1ccc(-c2noc(CC(=O)O)c2-c2ccc(OC)cc2)cc1", "inactive"],
  ["COc1ccc(/C=C/C(=O)O)cc1", "inactive"],
  ["CC(C)(Oc1ccc(C2CCCc3ccccc32)cc1)C(=O)O (centres undefined)", "inactive"],
  ["CCCCC[C@H](O)/C=C/[C@H]1[C@H](O)CC(=O)[C@@H]1C/C=C\\CCCC(=O)O", "inactive"],
  ["O=P(O)(O)O", "inactive"],
  ["CC(C)(C)CC(C)(C)c1ccc(OCCO)cc1", "inactive"],
  ["CCCOc1cc(N)ccc1C(=O)OCCN(CC)CC", "inactive"],
  ["NC(=O)C1c2ccccc2CCc2ccccc21", "inactive"],
  ["CSCCC(N)C(=O)O (centres undefined)", "inactive"],
  ["C=C1C(CCl)(CCl)C2(Cl)C(Cl)C(Cl)C1(Cl)C2(Cl)Cl (centres undefined)", "active"],
  ["CCc1ccc(S(=O)(=O)O)cc1", "inactive"],
  ["CC(C)(CO)[C@@H](O)C(=O)NCCC(=O)NCCSSCCNC(=O)CCNC(=O)[C@H](O)C(C)(C)CO", "inactive"],
  ["COc1cc(NCCCC(C)N)c2ncccc2c1 (centres undefined)", "active"],
  ["CC(C)C1=CC2=CC[C@@H]3[C@](C)(CCC[C@@]3(C)C(=O)O)[C@H]2CC1", "inactive"],
  ["CC1CC(OC(=O)C(O)c2ccccc2)CC(C)(C)C1 (centres undefined)", "inactive"],
  ["O=P(O)(O)OC[C@H](O)CO", "inactive"],
  ["CNC(=O)OCc1cccc(COC(=O)NC)n1", "inactive"],
  ["CC12CCC(C1)C(C)(C)C2=O (centres undefined)", "inactive"]
]}

###

Biological target: Luciferin 4-monooxygenase (Photinus pyralis)
Assay: Biochemical firefly luciferase enzyme assay for NPC (AID 624030); note: nearly all actives have a fitted effect of over 70% in size
Conditions: purified P. pyralis luciferase, luminescence, 5 min; series mostly up to 58.6 µM
Records with an inconclusive call do not appear. Activity calls are given as the source filed them. Calls come from the whole dose curve; as a rule, active = well fitted inhibition curve with a large enough effect; inconclusive = small, poorly fitted or top-dose-only effect; inactive = flat fitted curve, though single readings scatter.
Possible outcomes: Y (active), N (inactive)

{"columns": ["compound", "label class"],
 "data": [
  ["CC(CN(C)C)CN1c2ccccc2Sc2ccc(C(F)(F)F)cc21 (configuration not stated)", "N"],
  ["CN1C(=O)OC(C)(C)C1=O", "N"],
  ["OC1OC[C@@H](O)[C@H](O)[C@@H]1O (some centres not stated)", "N"],
  ["O=P(O)(O)OC[C@H](O)CO", "N"],
  ["CO", "N"],
  ["O.O.O.O.O.O.O.O=S(=O)([O-])[O-].[Co+2]", "N"],
  ["O=C(O)c1ccc(OCCn2ccnc2)cc1", "N"],
  ["COc1ccc(/C=C/C(=O)O)cc1", "N"],
  ["CC/C=C\\C/C=C\\C/C=C\\C/C=C\\C/C=C\\C/C=C\\CCC(=O)O", "N"],
  ["CC1=CCC2CC1C2(C)C (configuration not stated)", "N"],
  ["CC(=O)NCCCS(=O)(=O)O", "N"],
  ["Cc1ccc(S(=O)(=O)NCl)cc1", "N"],
  ["Cc1ncc[nH]1", "N"],
  ["O=[N+]([O-])c1c(Cl)cccc1-c1c[nH]cc1Cl", "N"],
  ["CCN(CC)CCOC(=O)c1cccnc1", "N"],
  ["Cn1c(O)c(N=NC(N)=S)c2ccccc21", "N"],
  ["C[C@H](O)CN(C)C", "N"],
  ["CN(C)CCC=C1c2ccccc2C(C)(C)c2ccccc21", "N"],
  ["CC(=O)Oc1cccc2c1C(=O)c1c(OC(C)=O)cc(C(=O)O)cc1C2=O", "N"],
  ["Nc1nc(=O)n([C@@H]2CS[C@H](CO)O2)cc1F", "N"],
  ["CC(=O)N[C@@H]1C(O[C@H]2O[C@H](C(=O)O)C(O)[C@H](O)[C@H]2O)[C@H](O)[C@@H](CO)O[C@H]1O[C@@H]1C(C(=O)O)O[C@@H](O[C@H]2[C@H](O)[C@@H](CO)OC(O)[C@@H]2NC(C)=O)[C@H](O)[C@H]1O (some centres not stated)", "N"],
  ["CCCOC(=O)c1ccccc1O", "N"],
  ["O=P(O)(O)OP(=O)(O)OP(=O)(O)O", "N"],
  ["OC/C=C/c1ccccc1", "N"],
  ["O=C(O)c1cc(N=Nc2ccc(O)c(C(=O)O)c2)ccc1O", "Y"],
  ["OB(O)O", "N"],
  ["O=C(O)[C@H]1CN(C/C=C/P(=O)(O)O)CCN1", "N"]
]}
